# log10(DC50) per record follows
molecular target: IRAK4 (Homo sapiens); construct: endogenous in cells; host or cells: THP-1 cells; assay: LVL THP1 HTRF (THP1 Homogeneous Time Resolved Fluorescence); type: cell-based; details: THP1 cells, 18 h incubation with compound, read-out: LVL THP1 HTRF EC50
Note: values are log10 of DC50 expressed in nM.

MOLECULE	log10(DC50)
C[C@H](C#N)Nc1cc(-n2ncc3cc(C#N)cnc32)ncc1C(=O)N[C@H]1CC[C@H](CCN2CC3(CC(c4ccc(N5CCC(=O)NC5=O)cc4)C3)C2)CC1	2.85
C[C@H](C#N)Nc1cc(-n2ncc3cc(C#N)cnc32)ncc1-n1cc([C@H]2CC[C@H](CCN3CCN(c4cccc5c(N6CCC(=O)NC6=O)nn(C)c45)CC3)CC2)nn1	2.38
C[C@H](C#N)Nc1cc(-n2ncc3cc(C#N)c(N)nc32)ncc1-n1cc([C@H]2CC[C@H](CCN3[C@H](C)CN(c4ccc([C@@]5(C)CCC(=O)NC5=O)cn4)C[C@H]3C)CC2)nn1 (single isomer, unassigned) [P-255]	1.09
C[C@H](C#N)Nc1cc(-n2ncc3cc(C#N)cnc32)ncc1-n1cc([C@H]2CC[C@H](CCN3CCN(c4ccc(N5CCC(=O)NC5=O)c(F)c4)[C@H](C)C3)CC2)nn1	-0.52

Now for another entry.
## Task // output log10(DC50); input C[C@H](C#N)Nc1cc(-n2ncc3cc(C#N)cnc32)ncc1-n1cc([C@H]2CC[C@H](CCN3CC[C@H]4[C@@H]3CCN4c3ccc([C@@]4(C)CCC(=O)NC4=O)nc3)CC2)nn1 (single isomer, unassigned) [P-415] ; system IRAK4 (Homo sapiens)
## Result 2.28

====

Target: IRAK4 (Homo sapiens, UniProt Q9NWZ3)
Construct: endogenous in cells; host or cells: THP-1 cells
Sequence (Q9NWZ3 whole entry): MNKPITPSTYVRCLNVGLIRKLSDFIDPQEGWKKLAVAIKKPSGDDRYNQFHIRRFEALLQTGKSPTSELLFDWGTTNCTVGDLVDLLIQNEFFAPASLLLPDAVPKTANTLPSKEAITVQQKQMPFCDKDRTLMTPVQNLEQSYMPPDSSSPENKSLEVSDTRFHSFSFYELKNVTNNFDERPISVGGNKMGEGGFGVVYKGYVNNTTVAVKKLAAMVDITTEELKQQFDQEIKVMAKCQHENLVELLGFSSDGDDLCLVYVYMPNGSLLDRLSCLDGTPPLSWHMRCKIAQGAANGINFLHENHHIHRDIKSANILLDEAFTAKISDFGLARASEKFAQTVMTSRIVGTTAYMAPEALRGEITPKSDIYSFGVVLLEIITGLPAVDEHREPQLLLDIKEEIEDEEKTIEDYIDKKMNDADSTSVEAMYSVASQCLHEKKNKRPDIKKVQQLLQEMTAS
Assay: LVL THP1 HTRF (THP1 Homogeneous Time Resolved Fluorescence)
Type: cell-based
Settings: THP1 cells, 18 h incubation with compound, read-out: LVL THP1 HTRF EC50
Description: Cell culture media was prepared in a tissue culture hood in a sterile environment by adding 10% FBS and 1% Penicillin Streptomycin to 500 mL no phenol red RPMI 1640 media. The media was filtered through a Nalgene Bottle Top Filter and stored at 4° C. For Homogenous Time Resolved Fluorescence (HTRF) assays, a Cisbio HTRF kit was used, which included: Lysis Buffer #1 4×, Blocking Reagent #3 100×, 20× Antibody 1 (Anti-IRAK4 d2), 20× Antibody 2 (Anti-IRAK4 k), and Detection Buffer. […]
# DC50 per record follows

MOLECULE	RESULT
C[C@H](C#N)Nc1cc(-n2ncc3cc(C#N)cnc32)ncc1-n1cc([C@H]2CC[C@H](CCN3CCN(c4cccc5c(N6CCC(=O)NC6=O)cncc45)CC3)CC2)nn1 [P-361]	5 nM
C[C@H](C#N)Nc1cc(-n2ncc3cc(C#N)c(N)nc32)ncc1-n1cc(C2CCC(CCN3[C@@H](C)CN(c4ccc(C5CCC(=O)NC5=O)cc4)C[C@@H]3C)CC2)nn1 (stereo partly drawn) [P-223]	< 1 nM

Now for another entry.
## Task Given the molecule C[C@H](C#N)Nc1cc(-n2ncc3cc(C#N)cnc32)ncc1C(=O)N[C@H]1CC[C@H](CCN2C3COCC2CN(c2ccc(C4CCC(=O)NC4=O)cc2)C3)CC1 (stereo partly drawn) [P-189] , write its reported DC50.
## Result 54 nM
